# Assayed Target: T1, KDM4A-DTD N931D (human, UniProt O75164 895-1011, N931D)
# T1 sequence: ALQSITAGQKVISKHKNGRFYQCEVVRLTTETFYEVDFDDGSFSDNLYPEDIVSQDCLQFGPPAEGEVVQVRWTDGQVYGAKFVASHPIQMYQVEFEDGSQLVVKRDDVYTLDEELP
# Assay Remarks: FP
No end group written: not given here.
Kd: recorded values
Value expressed in nM; do not type the unit.

# Binder, Output Unit, Kd
records = [
    ("RKQLATK(Me2)AARKSAPAT (also: fluorescein label, end not given here) [H3K23me2 peptide (dimethylated H3K23), fluorescein-labelled]", "nM", 2600),
    ("RKQLATK(Me3)AAAKSAPAT (also: fluorescein label, end not given here) [H3K23me3R26A peptide, fluorescein-labelled]", "nM", 27700),
]

Query: Data request, read-out Kd, for ARTK(Me3)QTARKSTGGK (also: fluorescein label, end not given here) [H3K4me3 peptide, fluorescein-labelled]
Response: 2700
